- TEST_TARGET: Receptor tyrosine-protein kinase erbB-2 (Homo sapiens) (UniProt P04626)
- Sequence (P04626 whole entry, looked up): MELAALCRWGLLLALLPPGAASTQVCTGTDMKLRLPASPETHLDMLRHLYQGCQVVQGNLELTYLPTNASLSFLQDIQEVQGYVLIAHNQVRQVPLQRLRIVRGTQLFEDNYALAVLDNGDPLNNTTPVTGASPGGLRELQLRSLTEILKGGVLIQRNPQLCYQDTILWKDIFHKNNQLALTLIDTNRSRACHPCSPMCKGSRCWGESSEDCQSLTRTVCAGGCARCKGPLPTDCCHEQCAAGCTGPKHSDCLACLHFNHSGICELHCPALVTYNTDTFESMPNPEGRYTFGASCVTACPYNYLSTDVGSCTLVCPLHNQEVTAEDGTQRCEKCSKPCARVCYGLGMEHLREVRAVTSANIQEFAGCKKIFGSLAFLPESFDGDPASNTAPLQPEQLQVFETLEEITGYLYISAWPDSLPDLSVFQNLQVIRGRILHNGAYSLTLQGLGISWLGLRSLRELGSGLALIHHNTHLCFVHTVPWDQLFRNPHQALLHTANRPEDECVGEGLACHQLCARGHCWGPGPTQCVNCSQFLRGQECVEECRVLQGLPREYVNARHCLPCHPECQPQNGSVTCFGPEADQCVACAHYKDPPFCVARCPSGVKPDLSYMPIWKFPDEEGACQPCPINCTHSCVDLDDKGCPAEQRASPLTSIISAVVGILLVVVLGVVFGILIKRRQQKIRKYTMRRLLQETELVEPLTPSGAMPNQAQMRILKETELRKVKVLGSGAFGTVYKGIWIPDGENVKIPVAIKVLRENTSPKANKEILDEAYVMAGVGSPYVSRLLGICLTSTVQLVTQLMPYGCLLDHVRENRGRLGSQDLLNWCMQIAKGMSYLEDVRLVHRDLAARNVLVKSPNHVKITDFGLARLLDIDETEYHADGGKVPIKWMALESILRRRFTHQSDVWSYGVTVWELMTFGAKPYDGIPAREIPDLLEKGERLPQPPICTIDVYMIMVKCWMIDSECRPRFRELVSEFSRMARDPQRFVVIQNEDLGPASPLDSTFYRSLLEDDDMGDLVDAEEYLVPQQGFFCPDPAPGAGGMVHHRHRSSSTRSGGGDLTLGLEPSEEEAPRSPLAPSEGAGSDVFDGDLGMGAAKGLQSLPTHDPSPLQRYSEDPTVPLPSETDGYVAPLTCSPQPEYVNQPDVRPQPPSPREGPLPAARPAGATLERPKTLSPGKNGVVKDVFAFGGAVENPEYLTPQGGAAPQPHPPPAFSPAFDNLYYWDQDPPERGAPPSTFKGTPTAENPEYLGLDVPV
- ASSAY: reducers of endogenous Her2 protein level, primary screen, SKBR3 breast tumor cells, AlphaScreen, ATP viability (AID 461);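 also: lower value means less Her2 protein in the cells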
- CONDITION_CONTEXT: 18-24 h, at 10 µM, active compounds read low
So I've got a bunch of molecules here, and I need their Her2 level values.
Numbers only, in %.

Please review the following examples before continuing.
COc1ccc(C)cc1NS(=O)(=O)c1ccc(NS(=O)(=O)c2ccc(NC(C)=O)cc2)cc1 ... 104
CC(NC(=O)CSc1n[nH]c(=O)n1C1CC1)C12CC3CC(CC(C3)C1)C2 (stereo unspecified) ... 106
Cn1c(CCNC(=O)c2ccco2)nc2cc(NC(=O)C3CCCCC3)ccc21 ... 114
O=c1[nH]c(SCc2cc(=O)n3ccccc3n2)nc2c1CCC2 ... 83.5

List Her2 level for every entry below, keeping the order given.
1. CCC(=O)N(Cc1cc2c(C)ccc(C)c2[nH]c1=O)C1CCCCC1
2. COC(=O)C1C(=O)c2c([nH]c(C(=O)OCCOC(C)C)c2C)CC1C (stereo unspecified)
3. CCn1c(SCC(=O)Nc2nnc(C)s2)nnc1-c1ccncc1
4. CC(C)CCNC(=O)NC(=O)CN1C(=O)NC2(CCCCC2)C1=O
5. CC(=O)c1cccc(S(=O)(=O)NCC(c2ccco2)N2CCCCC2)c1 (stereo unspecified)
6. CCn1c(=O)n(CC(=O)Nc2cc(OC)ccc2OC)c(=O)c2ccccc21
7. CCC(c1nnnn1Cc1ccco1)N(CCc1ccccc1)Cc1cc2cccc(C)c2[nH]c1=O (stereo unspecified)
8. CSCCC(NC(=O)c1occc1C)C(=O)O (stereo unspecified)

Completion:
1. 71.5
2. 111
3. 76
4. 120
5. 80
6. 77
7. 77.5
8. 94.5

List Her2 level for every entry below, keeping the order given.
1. O=C(C1CCCN(S(=O)(=O)c2cccnc2)C1)N1CCN(c2ccccn2)CC1 (stereo unspecified)
2. CCOC(=O)c1oc2ccccc2c1NC(=O)COC
3. O=C(Cn1nnc(-c2ccc(S(=O)(=O)N3CCCC3)cc2)n1)NCC1CCCO1 (stereo unspecified)
4. O=C(Nc1ccccc1)c1ccc(NCC2CCCO2)c(S(=O)(=O)N2CCOCC2)c1 (stereo unspecified)

Completion:
[122, 91.5, 99, 95]

List Her2 level for every entry below, keeping the order given.
1. O=C1CCc2nc3sc4c(c3c(=O)n2N1)CCCC4
2. C=C(Cl)COC(=O)[C@H]1C2C=CC(C2)C1C(=O)O (stereo partly specified)

Completion:
1: 100; 2: 120

List Her2 level for every entry below, keeping the order given.
1. COc1ccc(S(=O)(=O)N2CCCC2C(=O)Nc2ccc(C)cc2)cc1 (stereo unspecified)
2. CCN1C(=O)c2cccc3c(NC(=O)c4ccc5c(c4)OCCO5)ccc1c23
3. O=C(CSc1nc2ccccc2o1)Nc1ccccc1
4. Cn1cnc(S(=O)(=O)Nc2ccc(C(F)(F)F)cc2)c1
5. CC1N=C2c3ccccc3N=C(SCc3cc(=O)n4cc(Cl)ccc4n3)N2C1=O (stereo unspecified)
6. Cc1ccc(NS(=O)(=O)c2cn(C)cn2)cc1
7. CCN(CC)CCCn1c(=S)[nH]c2cc(Cl)ccc2c1=O

Completion:
1: 105; 2: 89; 3: 124; 4: 98.5; 5: 92.5; 6: 88; 7: 96

Data provenance is PubChem BioAssay.
